Would you kindly list Km for each of these proteins?
# Substrate: C=C(C)CCO[P@@](=O)(O)OP(=O)(O)O
# methodNotes: purified protein
# settings: co-substrate GPP 60 µM, IPP 0.5-50 µM; FPP formation
Don't forget the unit after the value.

Given RcG/FPPS1 (Rosa chinensis; F88Y) (protein) MADLKSKFLNVYSVLKSELLEDPAFEFTDASRQWVERMLDYNVPGGKLNRGLSVIDSYQLLQQGRELTEDEIFQASALGWCIEWLQAYFLVLDDMMDGSHTRRGQPCWFRLPKVGLIAANDGVLLRNHIPRILKKHFRQKPYYVDLVDLFNEVEFQTASGQLIDLITTIDGEKDLSKYSLSIHRRIVQYKTAYYSFYLSVACALLMSGEELDKHIDVKNLLVDMGIYFQVQDDYLDCFGDPETIGKIGTDIEDFKCSWLVVKALELSNEEQKKILHENYGNPDPAKVAKVKALYKELDLQGVFAEYERQSYEKLISSIEAHPSKAVQEVLKSFLGKIYKRKK , state its recorded Km.
9.08 ± 0.74 µM

Given RcG/FPPS1 (Rosa chinensis; F88Y/V123I) (protein) MADLKSKFLNVYSVLKSELLEDPAFEFTDASRQWVERMLDYNVPGGKLNRGLSVIDSYQLLQQGRELTEDEIFQASALGWCIEWLQAYFLVLDDMMDGSHTRRGQPCWFRLPKVGLIAANDGILLRNHIPRILKKHFRQKPYYVDLVDLFNEVEFQTASGQLIDLITTIDGEKDLSKYSLSIHRRIVQYKTAYYSFYLSVACALLMSGEELDKHIDVKNLLVDMGIYFQVQDDYLDCFGDPETIGKIGTDIEDFKCSWLVVKALELSNEEQKKILHENYGNPDPAKVAKVKALYKELDLQGVFAEYERQSYEKLISSIEAHPSKAVQEVLKSFLGKIYKRKK , state its recorded Km.
12.78 ± 3.07 µM

Given RcFPPS2 (Rosa chinensis) (protein) MSNLRAKFMEVYSVLKSELINDPAFEFTDVSRQWIERMLDYNVPGGKLNRGLSVVDSFKLLKEGRELTDEEVFQSCALGWCIEWLQAYFLVLDDIMDGSHTRRGQPCWFRQPKIGMIAANDGIILRNHIPRILKNHFRVMPYYVDLLDLFNEVEFQTAHGQMIDLITTHEGEKDLSKYSLEIHRRIVQYKTAYYSFYLPVACALVMAGKNVESHADVKNILIEMGTYFQVQDDYLDCFGDPEVIGKVGTDIQDFKCSWMVVKALELSNEEQKKLLHENYGKDDQECIAKVKELYNVLDLQGVFTEYESSSYDKLTKSIEAHPSKAVQAVLKSFLAKIYKRQK , state its recorded Km.
13.1 ± 3.4 µM
